# Study Target: Cytochrome P450 2C9 (Homo sapiens)
# Test Description: Cytochrome P450 family 2 subfamily C member 9 (CYP2C9) small molecule antagonists: luciferase biochemical (cell-free) qHTS assay (AID 1645842); further: nearly all actives have a fitted effect of over 55% in size
# Recorded Conditions: P450-Glo CYP2C9 enzyme assay, luciferin luminescence; series mostly up to 57.4 µM
Results filed as inconclusive are left out. Calls of active or inactive are those of the source. The call rests on the fitted dose curve; in most records, active means well fitted inhibition curve with a large enough effect in the repeat runs; inconclusive means weak or mixed curves; inactive means no such curve, though single readings can be large or run the other way.
Log the outcome using a class from active, inactive

Reference set, count: 10
>  <Molecule>
CN1CCN(c2cc3c(nn2)Oc2ccccc2N3C)CC1

>  <Study Target>
Cytochrome P450 2C9 (Homo sapiens)

>  <Label Value>
inactive

$$$$
>  <Molecule>
COC(=O)C1=C(C)NC(C)=C(C(=O)OC)C1c1cccc(NC(=O)NCCCN2CCC(c3cccc(OC)c3)CC2)c1

>  <Study Target>
Cytochrome P450 2C9 (Homo sapiens)

>  <Label Value>
active

$$$$
>  <Molecule>
O=C(O)c1cc(O)c(O)c(O)c1

>  <Study Target>
Cytochrome P450 2C9 (Homo sapiens)

>  <Label Value>
inactive

$$$$
>  <Molecule>
O=C(O)Cc1ccc(-c2ccccc2)cc1

>  <Study Target>
Cytochrome P450 2C9 (Homo sapiens)

>  <Label Value>
inactive

$$$$
>  <Molecule>
CCC1C(=O)OCC1Cc1cncn1C (centres undefined)

>  <Study Target>
Cytochrome P450 2C9 (Homo sapiens)

>  <Label Value>
inactive

$$$$
>  <Molecule>
CO/N=C(\C(=O)N[C@@H]1C(=O)N2C(C(=O)O)=C(COC(C)=O)CS[C@H]12)c1csc(N)n1

>  <Study Target>
Cytochrome P450 2C9 (Homo sapiens)

>  <Label Value>
inactive

$$$$
>  <Molecule>
CCCCCCCCCCCC(=O)[O][Sn]([CH2]CCC)([CH2]CCC)[O]C(=O)CCCCCCCCCCC

>  <Study Target>
Cytochrome P450 2C9 (Homo sapiens)

>  <Label Value>
inactive

$$$$
>  <Molecule>
COC(=O)c1nc(Cl)c(Cl)nc1N

>  <Study Target>
Cytochrome P450 2C9 (Homo sapiens)

>  <Label Value>
inactive

$$$$
>  <Molecule>
C=CCN1C(=O)C(CC(C)C)NC1=S (centres undefined)

>  <Study Target>
Cytochrome P450 2C9 (Homo sapiens)

>  <Label Value>
active

$$$$
>  <Molecule>
c1ccc(CCNc2nc(-c3ccccc3)cs2)cc1

>  <Study Target>
Cytochrome P450 2C9 (Homo sapiens)

>  <Label Value>
active

$$$$

**Query** Assay result, entry `CCN(CC)CCCCNc1ncc2cc(-c3c(Cl)cccc3Cl)c(NC(=O)NC(C)(C)C)nc2n1` — outcome?
**Result** active

**Query** Assay result, entry CN(C)[C@@H]1C(=O)C(C(=O)NCN2CCCC2)=C(O)[C@@]2(O)C(=O)C3=C(O)c4c(O)cccc4[C@@](C)(O)C3C[C@@H]12 (some centres undefined) — outcome?
**Result** inactive
